Source of measurements: patent US20230059489A1

- target or test system: human FLT3 (hFLT3) (human) (UniProt P36888)
- Sequence (P36888 27-543 limits assumed): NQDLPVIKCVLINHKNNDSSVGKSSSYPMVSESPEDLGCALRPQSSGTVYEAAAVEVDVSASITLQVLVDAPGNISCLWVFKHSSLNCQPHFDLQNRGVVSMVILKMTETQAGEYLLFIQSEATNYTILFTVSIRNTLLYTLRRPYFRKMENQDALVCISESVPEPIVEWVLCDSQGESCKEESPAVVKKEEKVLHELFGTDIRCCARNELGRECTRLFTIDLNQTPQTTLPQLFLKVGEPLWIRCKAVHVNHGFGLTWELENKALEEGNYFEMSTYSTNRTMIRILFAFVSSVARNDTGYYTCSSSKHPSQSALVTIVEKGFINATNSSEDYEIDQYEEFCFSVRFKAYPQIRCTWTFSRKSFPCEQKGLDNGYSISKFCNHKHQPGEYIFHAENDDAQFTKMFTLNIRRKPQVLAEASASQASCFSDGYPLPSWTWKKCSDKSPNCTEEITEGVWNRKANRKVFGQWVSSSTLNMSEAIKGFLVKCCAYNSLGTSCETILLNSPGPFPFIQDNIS
- protocol notes: SPR, Table 6, scFv format; set-up and antigen species not described
Threshold check on t1/2: strictly below 7 min is Satisfied; on or above 7 min is Not satisfied.

Please review the entries below; each comes with its answer.
{"binder": "P1A5 (scFv format) (scFv, part only; not given: linker, domain order, tags, V domains shown, not shown: another chain or arm of the molecule; small tags and cut ends) VH: QVQLVQSGAEVKKPGSSVKVSCKASGGVFSRYALSWVRQAPGQGLEWMGGIIPMLGFANYAQKFQGRVTITADESTSTAYMELSSLRSEDTAVYYCATLDFGALDYWGQGTLVTVSS VL: EIVLTQSPGTLSLSPGERATLSCRASQAVDSSDLAWYQQKPGQAPRLLIYDAYTRPSGIPDRFSGSGSGTDFTLTISRLEPEDFAVYYCQQYGSSPLTFGGGTKLEIK", "group": "Not satisfied"}
{"binder": "P4H11 (scFv format) (scFv, part only; not given: linker, domain order, tags, V domains shown, not shown: another chain or arm of the molecule; small tags and cut ends) VH: EVQLLESGGGLVQPGGSLRLSCAASGFTFSSYAMNWVRQAPGKGLEWVSSISGGGRSTYYADSVKGRFTISRDNSKNTLYLQMNSLRAEDTAVYYCARDLSPSDVGWGYGFDIWGQGTLVTVSS VL: EIVLTQSPGTLSLSPGERATLSCRASQSVSNTYLAWYQQKPGQAPRLLIYDTSSRATGIPDRFSGSGSGTDFTLTISRLEPEDFAVYYCQQYGSSLTFGQGTKVEIK", "group": "Satisfied"}
{"binder": "P7H3 (scFv format) (scFv, part only; not given: linker, domain order, tags, V domains shown, not shown: another chain or arm of the molecule; small tags and cut ends) VH: EVQLLESGGGLVQPGGSLRLSCAASGFTFSSYAMHWVRQAPGKGLEWVSAISGSGGSTYYADSVKGRFTISRDNSKNTLYLQMNSLRAEDTAVYYCARGTRWWWGDAFDHWGQGTLVTVSS VL: QSVLTQPPSVSVAPGKTARITCGGNNIGSKSVHWYQQKPGQAPVLVIYYDSDRPSGIPERFSGSNSGNTATLTISRVEAGDEADYYCQVWDSSTAWVFGGGTKLTVL", "group": "Satisfied"}
{"binder": "P3E10 (scFv format) (scFv, part only; not given: linker, domain order, tags, V domains shown, not shown: another chain or arm of the molecule; small tags and cut ends) VH: QVQLVQSGAEVKKPGSSVKVSCKASGGTFSSYAIQWVRQAPGQGLEWMGGIVGSWGLANYAQKFQGRVTITTDKSTSTAYMELSSLRSEDTAVYYCATSAFGELASWGQGTLVTVSS VL: EIVLTQSPGTLSLSPGERATLSCRASQSVPSSQLAWYQQKPGQAPRLLIYDASSRATGIPDRFSGSGSGTDFTLTISRLEPEDFAVYYCQQYGSSPLTFGQGTKVEIK", "group": "Satisfied"}

Ask | hey, is t1/2 for P1B4 (scFv format) (scFv, part only; not given: linker, domain order, tags, V domains shown, not shown: another chain or arm of the molecule; small tags and cut ends) VH: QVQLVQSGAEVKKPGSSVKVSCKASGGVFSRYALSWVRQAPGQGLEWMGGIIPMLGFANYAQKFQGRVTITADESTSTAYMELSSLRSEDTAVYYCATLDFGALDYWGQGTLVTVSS VL: EIVLTQSPGTLSLSPGERATLSCRASQSVPNEQLAWYQQKPGQAPRLLIYDASSRATGIPDRFSGSGSGTDFTLTISRLEPEDFAVYYCQQYGSPPLTFGQGTKVEIK lower than 7 min or not?
Reply | Satisfied
